Target: Protein deacetylase HDAC6 (Homo sapiens)
Sequence (Q9UBN7 whole entry): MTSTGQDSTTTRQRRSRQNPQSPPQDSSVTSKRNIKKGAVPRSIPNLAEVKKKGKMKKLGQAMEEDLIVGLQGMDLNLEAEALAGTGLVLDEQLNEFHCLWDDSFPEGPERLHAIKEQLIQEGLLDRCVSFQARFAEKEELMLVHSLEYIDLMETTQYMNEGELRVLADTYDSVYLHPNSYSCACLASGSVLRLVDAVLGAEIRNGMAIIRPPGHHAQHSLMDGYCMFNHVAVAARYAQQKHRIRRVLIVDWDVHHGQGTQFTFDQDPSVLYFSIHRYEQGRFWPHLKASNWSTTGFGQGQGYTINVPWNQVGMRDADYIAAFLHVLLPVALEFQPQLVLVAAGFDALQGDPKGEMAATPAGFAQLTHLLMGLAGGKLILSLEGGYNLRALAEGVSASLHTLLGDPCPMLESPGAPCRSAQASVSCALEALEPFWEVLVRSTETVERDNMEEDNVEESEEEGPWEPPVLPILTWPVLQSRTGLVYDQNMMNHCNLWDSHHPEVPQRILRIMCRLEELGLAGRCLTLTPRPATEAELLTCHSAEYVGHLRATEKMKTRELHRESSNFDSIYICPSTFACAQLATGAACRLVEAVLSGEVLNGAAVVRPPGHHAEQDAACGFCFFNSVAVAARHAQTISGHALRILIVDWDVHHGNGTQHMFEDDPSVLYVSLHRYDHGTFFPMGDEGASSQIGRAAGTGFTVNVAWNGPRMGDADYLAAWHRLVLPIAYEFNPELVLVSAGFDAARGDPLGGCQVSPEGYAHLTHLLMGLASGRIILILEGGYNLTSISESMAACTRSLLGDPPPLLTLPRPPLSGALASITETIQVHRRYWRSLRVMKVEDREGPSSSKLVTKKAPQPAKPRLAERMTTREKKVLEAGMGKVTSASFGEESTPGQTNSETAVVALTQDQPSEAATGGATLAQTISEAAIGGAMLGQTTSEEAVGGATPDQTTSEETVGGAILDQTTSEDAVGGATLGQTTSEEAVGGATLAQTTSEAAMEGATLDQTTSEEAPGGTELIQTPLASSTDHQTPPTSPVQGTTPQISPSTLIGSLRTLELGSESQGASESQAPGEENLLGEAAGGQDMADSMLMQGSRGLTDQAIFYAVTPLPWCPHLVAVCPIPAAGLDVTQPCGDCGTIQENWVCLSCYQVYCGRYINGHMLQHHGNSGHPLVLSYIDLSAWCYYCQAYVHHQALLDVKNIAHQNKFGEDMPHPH
Test: Inhibition of human recombinant HDAC6 using fluorogenic HDAC substrate after 30 mins by fluorimetrc method
Please provide measured pKi for the entries that follow.
Answers are plain numbers, as −log10 of the molar value.

Look up pKi for the entries below, preserving their order.
1. CC(Nc1c(NCCCCCC(=O)NO)c(=O)c1=O)C12CC3CC(CC(C3)C1)C2 (stereo not drawn)
2. CC(C)(CCCCC(=O)NO)Nc1c(Nc2ccc(C(F)(F)F)cc2)c(=O)c1=O
3. COc1ccc(Nc2c(NCCCCCC(=O)NO)c(=O)c2=O)cc1

1. 6.89
2. 6.89
3. 7.64

----------
Molecular target: UniProtKB Q9NRC8
Sequence (Q9NRC8 whole entry): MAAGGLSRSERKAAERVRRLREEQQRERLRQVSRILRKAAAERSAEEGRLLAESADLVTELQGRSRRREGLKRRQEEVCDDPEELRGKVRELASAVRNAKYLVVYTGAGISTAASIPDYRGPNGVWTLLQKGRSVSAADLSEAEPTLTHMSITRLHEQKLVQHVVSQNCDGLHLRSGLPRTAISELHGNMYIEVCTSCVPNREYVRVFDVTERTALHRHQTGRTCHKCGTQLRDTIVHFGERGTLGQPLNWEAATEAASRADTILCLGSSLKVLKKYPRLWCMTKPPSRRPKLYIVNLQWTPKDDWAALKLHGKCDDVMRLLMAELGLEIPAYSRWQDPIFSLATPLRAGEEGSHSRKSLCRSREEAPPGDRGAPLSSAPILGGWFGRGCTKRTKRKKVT
PROPERTY NAME: Ki

Some solved entries appear below for comparison.
- COMPOUND: "COc1ccc(Nc2c(NCCCCCC(=O)NO)c(=O)c2=O)cc1"
  Ki: "> 10 µM"
- COMPOUND: "CC(Nc1c(NCCCCCC(=O)NO)c(=O)c1=O)C12CC3CC(CC(C3)C1)C2 (stereo not drawn)"
  Ki: "> 10 µM"

Now, please, on to the next compound.
State the recorded Ki for this entry: Cc1[nH]c2ccccc2c1CCNCc1ccc(/C=C/C(=O)NO)cc1 [PANOBINOSTAT] > 10 µM
